TEST_DESCRIPTION: Cmax in Sprague-Dawley rat portal vein at 10 mg/kg, po
Assay type: ADME, organism-based
Parameters: dose 10 mg/kg, route oral
Examples of molecules with documented Cmax follow.
Please don't drop the unit; write it after the number.

Known Cmax results, listed for orientation:
INPUT_SMILES: CCCCNc1nc(N)nc2ccccc12
Cmax: 583 ng/mL

INPUT_SMILES: CCCCNc1nc(N)nc2cccc(C(=O)N[C@@H](C)c3ccccc3)c12
Cmax: 276 ng/mL

// next entry
Incoming: Please report the measured Cmax for `CCCCNc1nc(N)nc2cccc(C(=O)N(C)Cc3ccccc3)c12`
Outgoing: 209 ng/mL

---

TEST_DESCRIPTION: Cytotoxic activity against HEK293 cells assessed as reduction in cell viability incubated for 6 hrs
Format: cell-based
CONDITION_DESCRIPTION: human
Examples of molecules with documented CC50 at 6 h follow.

Incoming: Please report the measured CC50 at 6 h for `CCCCNc1nc(N)nc2cccc(Cl)c12`
Outgoing: > 25 µM

Incoming: Please report the measured CC50 at 6 h for `CCCCNc1nc(N)nc2ccc(C#N)cc12`
Outgoing: > 18 µM

---

TEST_DESCRIPTION: Tmax in C57BL/6 mouse at 1 mg/kg, po administered as single dose
Assay type: ADME, organism-based
CONDITION_DESCRIPTION: in vivo
REPORTED_PROPERTY: Tmax (min)
Please respond with the number in min and leave the unit unwritten.

Incoming: Please report the measured Tmax for `CCCCNc1nc(N)nc2ccccc12`
Outgoing: 30

---

TESTED_TARGET: Toll-like receptor 8 (Homo sapiens)
TEST_DESCRIPTION: Agonist activity at human TLR8 expressed in HEK293 cells assessed as induction of receptor activation incubated for 6 hrs by NF-kappaB-luciferase reporter gene assay
Type: cell-based
CONDITION_DESCRIPTION: hek293, 6 h
Examples of compounds with documented MEC follow.
Please respond with the number in µM and leave the unit unwritten.

Known MEC results, listed for orientation:
INPUT_SMILES: CCCCNc1nc(N)nc2cc(F)c(F)cc12
TESTED_TARGET: Toll-like receptor 8 (Homo sapiens)
UNIT_TAG: µM
MEC: 0.1
//
INPUT_SMILES: CCCCNc1nc(N)nc2ccc(CCc3ccccn3)cc12
TESTED_TARGET: Toll-like receptor 8 (Homo sapiens)
UNIT_TAG: µM
MEC: 0.3

// next entry
Incoming: Please report the measured MEC for `CCCCCNc1nc(N)nc2ccccc12`
Outgoing: 0.1

---

TESTED_TARGET: Toll-like receptor 7 (Homo sapiens) (UniProt Q9NYK1)
Sequence (Q9NYK1 whole entry): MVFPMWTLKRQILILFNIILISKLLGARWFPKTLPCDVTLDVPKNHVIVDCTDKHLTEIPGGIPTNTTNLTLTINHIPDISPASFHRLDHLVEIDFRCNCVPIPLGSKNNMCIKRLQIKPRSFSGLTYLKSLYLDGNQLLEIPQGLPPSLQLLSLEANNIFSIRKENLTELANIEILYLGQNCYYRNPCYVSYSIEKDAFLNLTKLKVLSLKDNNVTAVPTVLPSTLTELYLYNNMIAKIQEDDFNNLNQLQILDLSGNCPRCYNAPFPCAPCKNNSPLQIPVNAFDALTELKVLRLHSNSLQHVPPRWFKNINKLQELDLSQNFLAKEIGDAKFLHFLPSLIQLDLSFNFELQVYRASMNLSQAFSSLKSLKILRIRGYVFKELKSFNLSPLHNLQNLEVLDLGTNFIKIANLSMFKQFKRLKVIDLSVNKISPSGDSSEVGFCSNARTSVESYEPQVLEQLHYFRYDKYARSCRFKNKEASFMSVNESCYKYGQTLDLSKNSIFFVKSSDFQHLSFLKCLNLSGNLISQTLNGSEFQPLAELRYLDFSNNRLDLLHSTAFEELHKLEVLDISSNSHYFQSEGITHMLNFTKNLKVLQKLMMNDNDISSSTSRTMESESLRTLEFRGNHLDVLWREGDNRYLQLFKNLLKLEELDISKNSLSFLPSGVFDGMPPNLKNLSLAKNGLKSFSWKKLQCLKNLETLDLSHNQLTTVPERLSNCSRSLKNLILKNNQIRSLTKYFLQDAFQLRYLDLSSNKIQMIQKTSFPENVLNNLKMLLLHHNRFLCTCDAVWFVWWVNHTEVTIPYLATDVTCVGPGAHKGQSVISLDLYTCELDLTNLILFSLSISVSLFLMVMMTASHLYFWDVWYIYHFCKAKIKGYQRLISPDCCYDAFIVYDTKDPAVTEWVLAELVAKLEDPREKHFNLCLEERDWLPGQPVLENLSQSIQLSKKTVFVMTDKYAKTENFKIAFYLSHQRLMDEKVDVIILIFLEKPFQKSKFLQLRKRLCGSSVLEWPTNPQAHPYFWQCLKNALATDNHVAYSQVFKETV
TEST_DESCRIPTION: Agonist activity at human TLR7 expressed in HEK293 cells assessed as induction of receptor activation incubated for 6 hrs by NF-kappaB-luciferase reporter gene assay
Assay type: cell-based
Examples of molecules with documented MEC follow.
Please respond with the number in µM and leave the unit unwritten.

MOLECULE: CCCC(C)Nc1nc(N)nc2ccccc12 (stereo unspecified)
TEST_RESULT: 0.71
--
MOLECULE: CCCCNc1nc(N)nc2cccc(OC)c12
TEST_RESULT: 0.4
--
MOLECULE: CCCCNc1nc(N)nc2cc(CO)ccc12
TEST_RESULT: 0.1
--
MOLECULE: CNc1nc(N)nc2ccccc12
TEST_RESULT: 18.7
--
MOLECULE: CCCCNc1nc(N)nc2ccc(CCc3ccccn3)cc12
TEST_RESULT: 0.1

Incoming: System Toll-like receptor 7 (Homo sapiens) (UniProt Q9NYK1). Read-out MEC. Item `CCCNc1nc(N)nc2ccccc12` . Report value.
Outgoing: 1.07

Incoming: System Toll-like receptor 7 (Homo sapiens) (UniProt Q9NYK1). Read-out MEC. Item `CCCCNc1nc(N)nc2cc(F)c(F)cc12` . Report value.
Outgoing: 1.8

---

Organism: Homo sapiens
TEST_DESCRIPTION: Selectivity index, ratio of MEC for agonist activity at human TLR8 expressed in HEK293 cells to MEC for agonist activity at human TLR7 expressed in HEK293 cells as
Format: cell-based
Examples of molecules with documented Ratio follow.
Reply briefly: the number, and no unit.

Known Ratio results, listed for orientation:
INPUT_SMILES: CCCCNc1nc(N)nc2cccc(OCc3ccccc3)c12
Ratio: 10
--
INPUT_SMILES: CCCCNc1nc(N)nc2cccc(OCc3ccccc3OC)c12
Ratio: 90

// next entry
Incoming: Please report the measured Ratio for `CCCCOc1nc(N)c2c(n1)N(Cc1cccc(CN3CCCC3)c1)CC(=O)N2`
Outgoing: 30

---

Examples of compounds with documented CC50 at 6 h follow.
TEST_DESCRIPTION: Cytotoxic activity against HEK293 cells assessed as reduction in cell viability incubated for 6 hrs
Type: cell-based
CONDITION_DESCRIPTION: human

Known CC50 at 6 h results, listed for orientation:
COMPOUND: CCCCNc1nc(N)nc2cccc(C(=O)N[C@H](C)c3ccccc3)c12
REPORTED_PROPERTY: CC50 at 6 h
TEST_RESULT: > 25 µM
//
COMPOUND: CCCCNc1nc(N)nc2cc(OC)ccc12
REPORTED_PROPERTY: CC50 at 6 h
TEST_RESULT: > 18 µM
//
COMPOUND: CCCCNc1nc(N)nc2cc(F)c(F)cc12
REPORTED_PROPERTY: CC50 at 6 h
TEST_RESULT: > 18 µM
//
COMPOUND: CCCCNc1nc(N)nc2cc(CN(C)C)ccc12
REPORTED_PROPERTY: CC50 at 6 h
TEST_RESULT: > 18 µM

Incoming: Please report the measured CC50 at 6 h for `CCCCNc1nc(N)nc2cccc(OCCOC)c12`
Outgoing: > 25 µM

Incoming: Please report the measured CC50 at 6 h for `CCCCNc1nc(N)nc2c(F)cccc12`
Outgoing: > 18 µM

Incoming: Please report the measured CC50 at 6 h for CCCC(C)Nc1nc(N)nc2ccccc12 (configuration not stated)
Outgoing: > 25 µM

---

TESTED_TARGET: Toll-like receptor 8 (Homo sapiens, UniProt Q9NR97)
Sequence (Q9NR97 whole entry): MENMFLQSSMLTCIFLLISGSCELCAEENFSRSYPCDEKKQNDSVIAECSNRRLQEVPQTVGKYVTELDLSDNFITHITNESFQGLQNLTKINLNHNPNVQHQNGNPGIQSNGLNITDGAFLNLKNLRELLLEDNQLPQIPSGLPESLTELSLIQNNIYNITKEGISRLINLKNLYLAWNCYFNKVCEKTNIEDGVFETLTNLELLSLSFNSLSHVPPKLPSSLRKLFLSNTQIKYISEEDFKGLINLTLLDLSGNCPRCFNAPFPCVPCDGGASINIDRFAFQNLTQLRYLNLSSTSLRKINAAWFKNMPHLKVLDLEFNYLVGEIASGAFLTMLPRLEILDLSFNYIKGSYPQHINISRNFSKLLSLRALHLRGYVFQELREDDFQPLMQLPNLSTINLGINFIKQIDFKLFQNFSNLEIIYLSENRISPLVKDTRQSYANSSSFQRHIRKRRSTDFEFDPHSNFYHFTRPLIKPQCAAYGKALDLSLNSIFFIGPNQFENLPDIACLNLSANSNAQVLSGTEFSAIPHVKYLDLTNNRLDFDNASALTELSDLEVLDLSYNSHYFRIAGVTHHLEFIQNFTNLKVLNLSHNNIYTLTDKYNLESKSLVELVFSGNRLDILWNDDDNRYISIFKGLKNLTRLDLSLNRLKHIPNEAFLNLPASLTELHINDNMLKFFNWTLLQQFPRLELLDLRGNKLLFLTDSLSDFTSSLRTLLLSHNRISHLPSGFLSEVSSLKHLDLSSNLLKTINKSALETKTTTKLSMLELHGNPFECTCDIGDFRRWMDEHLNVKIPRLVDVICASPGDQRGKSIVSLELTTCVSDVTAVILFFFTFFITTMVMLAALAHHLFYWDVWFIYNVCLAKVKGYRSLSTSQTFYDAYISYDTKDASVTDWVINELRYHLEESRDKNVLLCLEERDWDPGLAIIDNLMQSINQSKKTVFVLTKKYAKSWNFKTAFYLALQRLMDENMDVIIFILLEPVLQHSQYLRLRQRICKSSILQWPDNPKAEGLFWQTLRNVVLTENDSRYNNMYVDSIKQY
TEST_DESCRIPTION: Agonist activity at human TLR8 expressed in HEK293 cells assessed as induction of receptor activation incubated for 6 hrs by NF-kappaB-luciferase reporter gene assay
Format: cell-based
CONDITION_DESCRIPTION: hek293, 6 h
Response key: t means MEC >= 0.5 µM; f means MEC < 0.5 µM.

COMPOUND: CCCCNc1nc(N)nc2cc(CN(C)C)ccc12
GROUP_LABEL: f
//
COMPOUND: CCCCNc1nc(N)nc2cccc(OCc3ccccn3)c12
GROUP_LABEL: t
//
COMPOUND: CCCCNc1nc(N)nc2cc(OC)ccc12
GROUP_LABEL: f
//
COMPOUND: CCCCNc1nc(N)nc2cccc(C(=O)N(C)C(C)C)c12
GROUP_LABEL: t
//
COMPOUND: CCCCNc1nc(N)nc2cccc(OCc3cccnc3)c12
GROUP_LABEL: t
//
COMPOUND: CCCCNc1nc(N)nc2ccc(OC)cc12
GROUP_LABEL: t
//
COMPOUND: CCCCNc1nc(N)nc2cccc(C(=O)NCc3ccccc3)c12
GROUP_LABEL: t
//
COMPOUND: CCCCNc1nc(N)nc2ccc(C(C)O)cc12 (stereo not drawn)
GROUP_LABEL: t

Next up:
Incoming: For this compound, is measured MEC 0.5 µM or higher? `CCCCNc1nc(N)nc2cccc(OCCOC)c12`
Outgoing: f

---

Measured IC50 on Cytochrome P450 2C9 (Homo sapiens, UniProt P11712) follows.
Sequence (P11712 whole entry): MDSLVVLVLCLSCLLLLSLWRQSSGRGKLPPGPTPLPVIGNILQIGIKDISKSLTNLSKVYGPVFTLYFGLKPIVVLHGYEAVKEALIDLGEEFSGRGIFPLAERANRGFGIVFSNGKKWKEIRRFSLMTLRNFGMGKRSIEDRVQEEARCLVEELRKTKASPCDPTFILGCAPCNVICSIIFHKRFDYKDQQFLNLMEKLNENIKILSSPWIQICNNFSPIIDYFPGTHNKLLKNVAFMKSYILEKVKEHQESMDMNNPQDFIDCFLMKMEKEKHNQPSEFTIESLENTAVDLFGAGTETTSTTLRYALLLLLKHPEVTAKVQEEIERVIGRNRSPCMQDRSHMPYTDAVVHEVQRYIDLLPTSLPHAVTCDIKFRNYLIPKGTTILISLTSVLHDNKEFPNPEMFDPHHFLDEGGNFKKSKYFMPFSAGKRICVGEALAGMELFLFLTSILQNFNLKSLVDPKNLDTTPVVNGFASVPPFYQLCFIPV

Incoming: Please report the measured IC50 for `CCCCNc1nc(N)nc2cccc(OCc3ccccn3)c12`
Outgoing: > 10 µM

Incoming: Please report the measured IC50 for `CCCCNc1nc(N)nc2cccc(C(=O)N[C@H](C)c3ccccc3)c12`
Outgoing: > 10 µM

Incoming: Please report the measured IC50 for `CCCCNc1nc(N)nc2cccc(C(=O)N[C@@H](C)c3ccccc3)c12`
Outgoing: > 10 µM

Incoming: Please report the measured IC50 for `CCCCNc1nc(N)nc2cccc(C(=O)NC)c12`
Outgoing: 8 µM

Incoming: Please report the measured IC50 for `CCCCNc1nc(N)nc2cccc(OCc3nccc(OC)c3OC)c12`
Outgoing: > 10 µM

Incoming: Please report the measured IC50 for `CCCCNc1nc(N)nc2cccc(OCc3ccccc3OC)c12`
Outgoing: > 10 µM

Incoming: Please report the measured IC50 for `CCCCNc1nc(N)nc2cccc(OCc3cccnc3)c12`
Outgoing: > 10 µM

Incoming: Please report the measured IC50 for `CCCCNc1nc(N)nc2cccc(C(=O)NC(C)C)c12`
Outgoing: > 10 µM

Incoming: Please report the measured IC50 for `CCCCNc1nc(N)nc2cccc(OCc3ccccc3)c12`
Outgoing: > 10 µM

Incoming: Please report the measured IC50 for `CCCCNc1nc(N)nc2cccc(C(=O)NCc3ccccc3)c12`
Outgoing: > 10 µM

Incoming: Please report the measured IC50 for `CCCCNc1nc(N)nc2cccc(C(=O)N(C)Cc3ccccc3)c12`
Outgoing: > 10 µM

Incoming: Please report the measured IC50 for `CCCCNc1nc(N)nc2cccc(OCc3ccc(CO)cc3OC)c12`
Outgoing: 5 µM
